Values compiled from ChEMBL document CHEMBL1201862.

Tested on: OVCAR-5
TEST_NAME: NCI tumour cell line growth inhibition, 48 h
The source made the active and inactive calls. No stated cut-off is given here; in the data, active = GI50 up to about 1.1 µM and inactive = higher.

COMPOUND | GI50
CC(C)(C)OC(=O)n1c(-c2ccccc2F)cc(=O)c2cc3c(cc21)OCO3 | 6.53 µM (inactive)
CCOC(=O)C(Cc1ccc2c(c1)CCC2)Cc1ccc2c(c1)CCC2 | > 100 µM (inactive)
O=C1CCC(Cc2ccc(Cl)cc2Cl)C(=O)N1 (stereo unspecified) | > 100 µM (inactive)
COc1ccc2c(C)cc(N/N=C/c3sccc3C)nc2c1 | 13.5 µM (inactive)
COc1ccc2c(c1)N=C1CSC(c3ccccc3Cl)N1C2 (stereo unspecified) | 8.97 µM (inactive)
O=C(c1ccc([N+](=O)[O-])cc1)C(Br)C(Br)c1ccnc2ccccc12 (stereo unspecified) | 16.5 µM (inactive)

* * *

# GI50 per record follows
Test system: SNB-75
TEST_NAME: NCI tumour cell line growth inhibition, 48 h
Activity calls are given as the source filed them. No stated cut-off is given here; in the data, active = GI50 up to about 1.1 µM and inactive = higher.

COMPOUND | GI50
O=C1CCC(Cc2ccc(Cl)cc2Cl)C(=O)N1 (stereo not given) | 64.6 µM (inactive)
C1CCC2(CC1)O[C@@H]1[C@@H](O2)[C@@H](O[C@H]2O[C@@H]3COC4(CCCCC4)O[C@H]3[C@@H]3OC4(CCCCC4)O[C@@H]23)O[C@@H]2COC3(CCCCC3)O[C@@H]12 | > 100 µM (inactive)
Cc1cc(/C=C/c2cc[n+](C)c3ccccc23)c(O)c2ncccc12 | 5.16 µM (inactive)
O=c1[nH]c(=O)n(C2CC(O)C(CO)O2)cc1OC/C=C/Cc1ccccc1 (stereo not given) | > 100 µM (inactive)
CSC1(Cc2ccccn2)C(=O)Nc2cccc([N+](=O)[O-])c21 (stereo not given) | > 100 µM (inactive)

* * *

System: T47D
TEST_NAME: NCI tumour cell line growth inhibition, 48 h
The source made the active and inactive calls. Cut-off read from the data, not from the text of the source: active = GI50 up to about 1.1 µM and inactive = higher.

COMPOUND | GI50
CC(=O)n1cc(OP(=O)(Oc2ccccc2)Oc2ccccc2)c2ccccc21 | 32.7 µM (inactive)
COc1ccccc1C(O)[C@@H]1C[C@@H]2[C@H]3CC[C@@](C)([C@@H]2O1)C3(C)C (stereo not given in full) | 16.4 µM (inactive)
CN(C)CCNC1=CC(=O)c2c(O)ccc(O)c2C1=O | 9.66 µM (inactive)
NC(CSCc1ccc(I)cc1)C(=O)O (stereo not given) | > 100 µM (inactive)
C[C@]12CC[C@@H]3c4cc(OCC(F)(F)F)c(O)cc4CC[C@H]3[C@@H]1CC[C@@H]2O | 5.41 µM (inactive)
CCOC(=O)c1nc2cc(C(F)(F)F)ccc2nc1Oc1ccc(F)cc1 | 5.9 µM (inactive)
Cc1ccc(-c2nc(-c3nccc4ccccc34)oc2-c2ccccc2)cc1 | 68.2 µM (inactive)
N#CC(=N)c1ncn(-c2ccccc2N)c1N | > 100 µM (inactive)
COc1cc(/C=N/n2c(-c3ccccc3)nn(C(C)=O)c2=O)cc(OC)c1OC | 8.02 µM (inactive)
Cc1ccsc1C(=O)C(CC(=O)c1cccs1)c1ccsc1 (stereo not given) | 14.5 µM (inactive)

* * *

Tested on: MCF7
TEST_NAME: NCI tumour cell line growth inhibition, 48 h
Activity calls are given as the source filed them. No stated cut-off is given here; in the data, active = GI50 up to about 1.1 µM and inactive = higher.

MOLECULE | GI50
Cc1ccc(NC(=O)CC(=O)N2N=C(N3CCCCC3)CC2c2ccccc2)cc1 (stereo not given) | > 100 µM (inactive)
COc1ccc(-n2c(C)nc3ccc(NC4OC(CO)C(O)C(O)C4O)cc3c2=O)cc1 (stereo not given) | > 100 µM (inactive)
O=C1CCC(Cc2ccc(Cl)cc2Cl)C(=O)N1 (stereo not given) | > 100 µM (inactive)
COc1cccc(NC(=O)c2c(N)n[nH]c2SC)c1 | > 100 µM (inactive)
Cc1nc(-n2[nH]c(C)c(CCO)c2=O)[nH]c(=O)c1CCO | > 100 µM (inactive)
O=c1[nH]c2c(c(=O)[nH]1)SSC2 | 17.4 µM (inactive)
COc1cc2c(cc1OC)C(OC)N(C)c1c-2ccc2cc3c(cc12)OCO3 (stereo not given) | 1.24 µM (inactive)
CCCCCCCCCCCCCCCC(=O)OCC(COP(=O)(O)OCCNC(=O)CCSSc1ccccn1)OC(=O)CCCCCCCCCCCCCCC (stereo not given) | > 100 µM (inactive)
Cn1c2ccccc2n2c3ncccc3c(=O)c(C#N)c12 | 3.81 µM (inactive)
CCOC(=O)c1c(-c2cccc3ccccc23)c(C#N)c(=S)n(C2OC(COC(C)=O)C(OC(C)=O)C(OC(C)=O)C2OC(C)=O)c1C (stereo not given) | > 100 µM (inactive)

* * *

Test system: SNB-75
TEST_NAME: NCI tumour cell line growth inhibition, 48 h
Calls of active or inactive are those of the source. Rule as the data show it: active = GI50 up to about 1.1 µM and inactive = higher.
Recorded measurements of GI50, one per entry
RECORDED_ENDPOINT: GI50

MOLECULE | RECORDED_ENDPOINT | REPORTED
Cc1ccc(NC(=O)CC(=O)N2N=C(N3CCCCC3)CC2c2ccccc2)cc1 (stereo not given) | GI50 | > 100 µM (inactive)
C#CCOCn1cnc2c(S)ncnc21 | GI50 | 13.6 µM (inactive)
CCOC(=O)c1sc2c(c1OC(=O)c1cc(OC)c(OC)c(OC)c1)c(=O)n(-c1ccccc1)c(=S)n2-c1ccccc1 | GI50 | > 100 µM (inactive)
Cn1c(COC(=O)Nc2ccccc2)c(COC(=O)Nc2ccccc2)c2ccc3cc(Cl)c(Cl)cc3c21 | GI50 | 8.53 µM (inactive)
O=C(O)CCC(NC(=O)c1ccc(Nc2nc3cc(C(F)(F)F)ccc3nc2C(=O)O)cc1)C(=O)O (stereo not given) | GI50 | > 100 µM (inactive)
Cc1ccsc1C(=O)C(CC(=O)c1cccs1)c1ccsc1 (stereo not given) | GI50 | > 100 µM (inactive)
COc1ccc(NC(=O)/C(Cc2nc3ccccc3nc2O)=N\O)c(OC)c1 | GI50 | > 100 µM (inactive)
CC(C)(C)c1ccc(-c2nc3ccc(Cl)cc3c(=O)o2)cc1 | GI50 | 26.8 µM (inactive)
O=c1nc2sc3ccc4ccccc4c3n2nc1O | GI50 | 41.1 µM (inactive)
Cc1ccc(N(C=O)c2c([N+](=O)[O-])cc([N+](=O)[O-])c3c2=[N+]([O-])CN=3)cc1 | GI50 | 33.7 µM (inactive)

* * *

Test system: SNB-19
TEST_NAME: NCI tumour cell line growth inhibition, 48 h
The source made the active and inactive calls. Cut-off read from the data, not from the text of the source: active = GI50 up to about 1.1 µM and inactive = higher.
Outcome codes: TRUE for active, FALSE for inactive

COMPOUND | TESTED_ON | ASSIGNED_LABEL
COc1cc2c(c(OC)c1OC)C(=O)[C@H](O)[C@H]2NC(N)=O | SNB-19 | FALSE
CO[C@]12CC(=O)C3(C(C[C@H]4CC5CC[C@H]6C[C@@H](OC(C)=O)CC[C@]6(OC(C)=O)C5C[C@@]43C)C1)C1C[C@H]3[C@@H]4CC[C@H]5C[C@@H](OC(C)=O)CC[C@]5(OC(C)=O)[C@H]4CC[C@]3(C)C12 (stereo partly drawn) | SNB-19 | FALSE
COc1ccc(C(=O)C#Cc2cnc(O)nc2O)cc1 | SNB-19 | FALSE
CCCCOC(=O)NC(=O)c1cn(CCCOC(=O)NCCCCCCNC(=O)OCCCn2cc(C(=O)NC(=O)OCCCC)c(=O)[nH]c2=O)c(=O)[nH]c1=O | SNB-19 | FALSE
CN(C)CCSc1nccc(-c2ccc(-c3ccnc(SCCN(C)C)n3)s2)n1 | SNB-19 | FALSE
CN(C)CCC(=O)/C=C\c1ccccc1 | SNB-19 | FALSE
CCN(CC)CCCCC1CCN(CC(=O)N2c3ccccc3NC(=O)CC2C)CC1 (stereo not drawn) | SNB-19 | FALSE
COc1cc2c3c(c4ccc(OC)c(OC)c4c2cc1OC)CN1CCC[C@@H]1C3 [TYLOCREBRINE] | SNB-19 | TRUE

* * *

Test system: RPMI-8226
TEST_NAME: NCI tumour cell line growth inhibition, 48 h
Calls of active or inactive are those of the source. Rule as the data show it: active = GI50 up to about 1.1 µM and inactive = higher.
Outcome codes: active, inactive

COMPOUND | ASSIGNED_LABEL
O=C1CSC(c2ccccc2O)N1c1ccc(Oc2ccc(Cl)cc2)c(Cl)c1 (configuration not stated) | inactive
COc1ccc2c(c1)N=C1CSC(c3ccccc3Cl)N1C2 (configuration not stated) | inactive
O=C(n1c(=O)n(-c2ccc([N+](=O)[O-])cc2)c(=O)n1C(=O)C(Cl)(Cl)Cl)C(Cl)(Cl)Cl | inactive
COc1ccc(/N=C/c2ccc(N(CCC#N)S(=O)(=O)c3ccccc3)cc2)cc1 | inactive
CCN(CC)CCN(C(=O)C(C)(C)C)c1ccccc1N | inactive
COC(=O)C[C@H]1CCC2(OCCO2)[C@]1(C)C(=O)OC | inactive
COc1ccccc1NC(=S)N/N=C/c1c(C)n(C)n(-c2ccccc2)c1=O | inactive
O=C(O)c1ccccc1CC1Cc2ccccc2C1=O (configuration not stated) | inactive
CCCCCCc1cc(C(=O)Nc2ccc(Cl)cc2)nc(S)n1 | inactive
CO[C@@H](c1ccccc1)[C@H](O)[C@@](O)(c1ccccc1)P(=O)(OC)OC | inactive
CCOC(=O)C(NC(=O)CC)(Nc1ccc(F)cc1F)C(F)(F)F (configuration not stated) | inactive
C#CCOCn1cnc2c(S)ncnc21 | inactive
NC(=O)N/N=C(/Cc1nc2ccc(C(=O)c3ccccc3)cc2nc1O)C(=O)Nc1ccc(C(F)(F)F)cc1[N+](=O)[O-] | inactive
O=C(CC(C(=O)c1ccsc1)c1cccs1)c1ccsc1 (configuration not stated) | inactive
COc1ccc(/C(C)=C2\CCCN(Cc3ccccc3)C2)cc1 | inactive
CN(C)CCNC1=CC(=O)c2c(O)ccc(O)c2C1=O | inactive
O=C(Nc1ccc(Cl)cc1)NS(=O)(=O)c1c(-c2ccccc2)oc2ccccc2c1=O | inactive
CCCCOC(=O)N[C@H]1CCc2cc(OC)c(OC)c(OC)c2-c2ccc(SC)c(=O)cc21 | active
Cc1ccc(C(=O)/C=C2\Nc3ccccc3SC2=O)c(C)c1 | inactive
CCOC(=O)CNC(=O)C(CCC(=O)N(C)O)NC(=O)CCC(N)C(=O)O (configuration not stated) | inactive
N#CC(=N)c1ncn(-c2ccc(N)cc2)c1N | inactive
CC1(C)C2CCC3(OCCO3)C1C(O)C2 (configuration not stated) | inactive
